System: morningglory
assayProcedure: Test A pre-/postemergence herbicide test
Format: in vivo, Ipomoea spp.
statedConditions: Postemergence, 500 g ai/ha; 0 to 100 scale (0 no effect, 100 complete control)
I'd be grateful if you could share measured Plant response rating, Morningglory for these entries.
Field format: numeric only.

Value sought: Plant response rating, Morningglory, system morningglory, item O=C1NCC(c2ccc(Cl)c(F)c2)C1C(=O)Nc1ccccc1F (stereo not shown) [Compound 53] . Result: 0

morningglory Plant response rating, Morningglory of O=C1NCC(c2ccc(C(F)(F)F)nc2)C1C(=O)Nc1cccc(F)c1F (racemic) [Compound 263] is 60

Fill in: morningglory Plant response rating, Morningglory for O=C1NCC(c2cccc(C(F)(F)F)c2)C1C(=O)Nc1ccccc1C(F)(F)F (racemic) [Compound 4] = 30

The molecule O=C1NCC(c2ccc(C(F)(F)F)nc2)C1C(=O)Nc1ccccc1C(F)(F)F (racemic) [Compound 264] , tested on morningglory, showed Plant response rating, Morningglory of 0
